Measured Plutella xylostella Mortality (%) 500 ppm of individual entries
System: Plutella xylostella
TEST: whole plant or invertebrate
Assay type: in vivo
DETAILS: 500 ppm; 2nd-instar larvae, leaf immersion feeding
Source text: (1) Insecticidal Activity on 2nd-Instar Larvae of Plutella xylostella. Plutella xylostella (L.) is a lepidoptera pest with a chewing mouthpart and is a common vegetable pest. The 2nd-instar larvae of Plutella xylostella were used as test objects and tested by using a leaf immersion feeding method. […]

These solved cases illustrate the format of a correct answer.
INSERT INTO results (molecule, experimental_system, result) VALUES
  ('COC(=O)CC1(C(=O)OC)Nc2c([S+]([O-])C(F)(F)F)c(C#N)nn2-c2ncc(C(F)(F)F)cc21 (stereo not shown) [a-1]', 'Plutella xylostella', '100%'),
  ('N#Cc1nn2c(c1[S+]([O-])C(F)(F)F)NC(CBr)(C(=O)C(F)(F)F)c1cc(C(F)(F)F)cnc1-2 (stereo not shown) [a-29]', 'Plutella xylostella', '100%'),
  ('N#Cc1nn2c(c1[S+]([O-])C(F)(F)F)NC(C#N)(CC(=O)C(F)(F)F)c1cc(C(F)(F)F)cnc1-2 (stereo not shown) [a-57]', 'Plutella xylostella', '100%'),
  ('N#CC1Nc2c([S+]([O-])C(F)(F)F)c(C(F)(F)F)nn2-c2ncc(C(F)(F)F)cc21 (stereo not shown) [a-95]', 'Plutella xylostella', '96%');

Prompt line: Please state recorded Plutella xylostella Mortality (%) 500 ppm (tested on Plutella xylostella) of CC(=O)C1(CC(=O)C(F)(F)F)Nc2c([S+]([O-])C(F)(F)F)c(C#N)nn2-c2ncc(C(F)(F)F)cc21 (stereo not shown) [a-37]
Response line: 100%

Prompt line: Please state recorded Plutella xylostella Mortality (%) 500 ppm (tested on Plutella xylostella) of N#Cc1nn2c(c1[S+]([O-])C(F)(F)F)NC(Cl)(Cl)c1cc(C(F)(F)F)cnc1-2 (stereo not shown) [a-44]
Response line: 100%

Prompt line: Please state recorded Plutella xylostella Mortality (%) 500 ppm (tested on Plutella xylostella) of CCOC(=O)CC1(C(=O)OCC)Nc2c([S+]([O-])C(F)(F)F)c(C#N)nn2-c2ncc(C(F)(F)F)cc21 (stereo not shown) [a-22]
Response line: 100%
